# experimental-target: Streptavidin (Streptomyces avidinii)
# assay-name: streptavidin binders on small-molecule microarray, primary screen, artefact control for SMM compound annotation, biophysical, 635/667 nm fluorescence (AID 1147);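 further: signal reflects streptavidin binding to arrayed compounds as a control protein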
# details: streptavidin binding, higher = more signal
property-name: composite z-score
// no unit, no text: just the number

Enquiry: Could you tell me which composite z-score is on file for N#Cc1ccc(NN2C(C(O)c3c(F)cccc3Cl)C=CC3C(=O)N(c4ccccc4)C(=O)C32)cc1 (stereo not drawn) ?
Return: 1.35

Enquiry: Same thing, different molecule: CC(C)OC(=O)C=C1C[C@@H](c2ccccc2C(F)(F)F)O[C@@H](c2ccccc2C(F)(F)F)O1
Return: 0.215

Enquiry: Same thing, different molecule: [N-]=[N+]=NCc1ccccc1[C@@H]1OC(c2ccc(OCCCO)cc2)=N[C@]1(CCS(=O)(=O)c1ccccc1)C(=O)NCc1ccccc1
Return: 1.09

Enquiry: Same thing, different molecule: COC(=O)[C@@]1(Cc2ccc(F)cc2)[C@H]2c3cc(C(=O)N(C)C)n(Cc4ccc(S(C)(=O)=O)cc4)c3C[C@H]2CN1C(=O)c1ccccc1
Return: 1.02

Enquiry: Same thing, different molecule: CC(C)(C)C(=O)N[C@@H](c1ccc(Cl)cc1)[C@]1(C)C[C@H]1C1CCCCC1
Return: 2.44

Enquiry: Same thing, different molecule: CCCC#C[Si](O[C@H](CC)c1cn([C@H](CO)Cc2ccccc2)nn1)(C(C)C)C(C)C
Return: 0.949

Enquiry: Same thing, different molecule: CCOc1cc(C(O)C2C=CC3C(=O)N(c4ccccc4)C(=O)C3N2Nc2ccccc2)ccc1O (stereo not drawn)
Return: 0.0572

Enquiry: Same thing, different molecule: CN(C)C(=O)[C@@]1(Cc2ccccc2)N=C(c2ccc(OCCCO)cc2)O[C@H]1c1ccccc1N=[N+]=[N-]
Return: 1.5

Enquiry: Same thing, different molecule: C=C[C@H](COC(C)=O)N(C(=O)OC(C)(C)C)S(=O)(=O)c1ccc(Br)cc1
Return: 0.304

Enquiry: Same thing, different molecule: [N-]=[N+]=Nc1ccccc1C[C@]1(C(=O)NCC(O)CO)N=C(c2ccc(OCCCO)cc2)O[C@H]1c1ccccc1N=[N+]=[N-] (stereo partly drawn)
Return: 0.0136

Enquiry: Same thing, different molecule: C=C/C=C/[C@H]1C(=C)CN([C@@H](Cc2ccccc2)C(=O)OC)[C@@H]1[C@H](O)Cc1ccccc1
Return: -0.663

Enquiry: Same thing, different molecule: COc1ccc(C(O)C2C=CC3C(=O)N(c4ccccc4)C(=O)C3N2Nc2ccc(C(C)C)cc2)cc1OCc1ccccc1 (stereo not drawn)
Return: 1.89

Enquiry: Same thing, different molecule: CCOC(=O)C1=CCC(c2ccccc2)N(S(=O)(=O)CC[Si](C)(C)C)C1 (stereo not drawn)
Return: -0.192

Enquiry: Same thing, different molecule: CCN(CC)c1ccc(N2CC=CC34O[C@@H]5/C=C\CCCOC(=O)C5[C@H]3C(=O)N(CCO)[C@@H]4C2=O)cc1 (stereo partly drawn)
Return: -0.79

Enquiry: Same thing, different molecule: COCCOC(=O)N1C(=O)[C@@]2(c3cc(C#CCCO)ccc31)[C@H](C(=O)Nc1nc3ccccc3s1)[C@H]1C(=O)O[C@H](c3ccccc3)[C@H](c3ccccc3)N1[C@@H]2c1ccc(OCCO)cc1
Return: 1.06

Enquiry: Same thing, different molecule: C=CCC(OC(C)=O)[C@@H]1[C@@H](N(Cc2ccc(-c3cccc(C(F)(F)F)c3)o2)C(=O)Cc2ccc(F)cc2)c2cc(OCCCO)ccc2N1C(=O)Cc1ccc(OC)cc1 (stereo partly drawn)
Return: -1.07

Enquiry: Same thing, different molecule: COc1ccc([Si](C)(C)[C@H]2[C@H](CCn3cc([C@H](O)c4ccccc4)nn3)O[C@@]3(C(=O)N(Cc4cccc(N5CCOC5=O)c4)c4ccccc43)[C@@H]2C)cc1
Return: 0.283

Enquiry: Same thing, different molecule: CN(C)CCCC[C@@H]1NC(=O)[C@H]2C[C@@H](C(=O)NCCCCCNC(=O)CS)[C@@H](c3cccc(OCCO)c3)N2C1=O
Return: 0.182

Enquiry: Same thing, different molecule: COC(=O)[C@@]1(Cc2ccc(F)cc2)[C@H]2c3cc(C(=O)N4CCCC4)n(Cc4ccc(C)o4)c3C[C@H]2CN1C(=O)c1ccccc1
Return: 1.39

Enquiry: Same thing, different molecule: C=CCC(OC(C)=O)[C@@H]1[C@@H](N(Cc2ccc(-c3ccccc3)cc2)C(=O)Cc2ccc(F)cc2)c2cc(OCCCO)ccc2N1C(=O)c1ccc(-c2ccccc2)cc1 (stereo partly drawn)
Return: 0.711

Enquiry: Same thing, different molecule: [N-]=[N+]=NCc1ccccc1[C@@H]1OC(c2ccc(OCCCO)cc2)=N[C@]1(CCS(=O)(=O)c1ccccc1)C(=O)NCCN1CCOCC1
Return: 0.81

Enquiry: Same thing, different molecule: COCCOC(=O)N1C(=O)[C@@]2(c3ccccc31)[C@H](c1ccccc1OCCO)N1[C@H](c3ccccc3)[C@H](c3ccccc3)OC(=O)[C@H]1[C@@H]2C(=O)Nc1nc2ccccc2s1
Return: 1.14

Enquiry: Same thing, different molecule: C=C(/C(=C/C[C@@H](OC(C)=O)c1ccc(OCCO)cc1)c1cnc2ccccc2c1)C(C)C
Return: 0.376
